Molecular target: Human BCL-XL protein (N-terminal HiBiT tagged BCL-XL in HT1080 cells) (Homo sapiens, UniProt Q07817)
Construct: expressed in transfected cells; host or cells: HT-1080 (ATCC CCL-121), stably transduced with lentivirus pLV-UBC-N-HiBiT-BCL-XL-PGK-puro and selected with puromycin
Sequence (Q07817 whole entry): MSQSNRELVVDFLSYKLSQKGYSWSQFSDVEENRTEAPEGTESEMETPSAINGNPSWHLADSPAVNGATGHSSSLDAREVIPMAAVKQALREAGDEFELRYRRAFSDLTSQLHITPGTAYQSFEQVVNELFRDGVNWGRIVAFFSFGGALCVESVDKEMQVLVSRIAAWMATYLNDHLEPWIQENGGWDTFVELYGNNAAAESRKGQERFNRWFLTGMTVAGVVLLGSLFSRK
Test: HiBiT based degradation assay
Assay type: cell-based
Conditions: BCL-XL degradation normalized with DMSO control; HT1080 cells expressing HiBiT-BCL-XL; 24 h
outcomeMeasure: Ymin (24 h)

Examples from the recorded data:
>  <compound>
Cc1c(OCCCN2C[C@@H](C)N(CC(=O)Nc3cccc4c(C5CCC(=O)NC5=O)nn(C)c34)[C@@H](C)C2)cccc1-c1ccc(N2CCc3cccc(C(=O)Nc4nc5ccccc5s4)c3C2)nc1C(=O)O (some centres unmarked) [Compound 117a]

>  <outcomeMeasure>
Ymin (24 h)

>  <recordedValue>
B (50% ≤ Ymin < 70%)

$$$$
>  <compound>
Cc1c(OCCCC2CCN([C@@H](C)C(=O)Nc3cccc4c(C5CCC(=O)NC5=O)nn(C)c34)CC2)cccc1-c1ccc(N2CCc3cccc(C(=O)Nc4nc5ccccc5s4)c3C2)nc1C(=O)O (some centres unmarked) [Compound 216a]

>  <outcomeMeasure>
Ymin (24 h)

>  <recordedValue>
B (50% ≤ Ymin < 70%)

$$$$
>  <compound>
Cc1c(OCCCCCCCCCN2CCN(c3ccc4c(C5CCC(=O)NC5=O)nn(C)c4c3)CC2)cccc1-c1ccc(N2CCc3cccc(C(=O)Nc4nc5ccccc5s4)c3C2)nc1C(=O)O (centres unmarked)

>  <outcomeMeasure>
Ymin (24 h)

>  <recordedValue>
A (Ymin < 50%)

$$$$
>  <compound>
Cc1c(OCCO[C@@H]2C[C@H]3CC[C@@H](C2)N3CC(=O)Nc2cccc3c(C4CCC(=O)NC4=O)nn(C)c23)cccc1-c1ccc(N2CCc3cccc(C(=O)Nc4nc5ccccc5s4)c3C2)nc1C(=O)O (some centres unmarked) [Compound 224a]

>  <outcomeMeasure>
Ymin (24 h)

>  <recordedValue>
B (50% ≤ Ymin < 70%)

$$$$

Next:
compound Cc1c(O[C@H]2CC[C@H](CCCCN3CCN(c4ccc5c(C6CCC(=O)NC6=O)nn(C)c5c4)CC3)CC2)cccc1-c1ccc(N2CCc3cccc(C(=O)Nc4nc5ccccc5s4)c3C2)nc1C(=O)O (some centres unmarked) [Compound 161a] , Ymin (24 h) observed: A (Ymin < 50%)

* * *

Target: Human BCL-XL protein (N-terminal HiBiT tagged BCL-XL in HT1080 cells) (Homo sapiens)
Construct: expressed in transfected cells; host or cells: HT-1080 (ATCC CCL-121), stably transduced with lentivirus pLV-UBC-N-HiBiT-BCL-XL-PGK-puro and selected with puromycin
Test: HiBiT based degradation assay
Format: cell-based
Settings: BCL-XL degradation normalized with DMSO control; HT1080 cells expressing HiBiT-BCL-XL; 6 h
outcomeMeasure: Ymin (6 h)

Examples from the recorded data:
>  <compound>
Cc1c(-c2ccc(N3CCc4cccc(C(=O)Nc5nc6ccccc6s5)c4C3)nc2C(=O)NCCCCCCCCCCCC(=O)Nc2cccc3c(C4CCC(=O)NC4=O)nn(C)c23)cnn1CC12CC3CC(CC(C3)C1)C2 (stereo not shown)

>  <Ymin (6 h)>
B (50% ≤ Ymin < 70%)

$$$$
>  <compound>
Cc1cc(OCCCN2C[C@@H](C)N(CC(=O)N3CCN(c4cccc5c(C6CCC(=O)NC6=O)nn(C)c45)CC3)[C@@H](C)C2)ccc1-c1ccc(N2CCc3cccc(C(=O)Nc4nc5ccccc5s4)c3C2)nc1C(=O)O (stereo partly shown) [Compound 183a]

>  <Ymin (6 h)>
B (50% ≤ Ymin < 70%)

$$$$
>  <compound>
Cc1c(OCCCN2CCN(CC(=O)Nc3ccc4c(C5CCC(=O)NC5=O)nn(C)c4c3)CC2)cccc1-c1ccc(N2CCc3cccc(C(=O)Nc4nc5ccccc5s4)c3C2)nc1C(=O)O (stereo not shown)

>  <Ymin (6 h)>
B (50% ≤ Ymin < 70%)

$$$$
>  <compound>
Cc1c(OCCCC2CCN(CC(=O)N3CCN(c4ccc5c(C6CCC(=O)NC6=O)nn(C)c5c4)CC3)CC2)cccc1-c1ccc(N2CCc3cccc(C(=O)Nc4nc5ccccc5s4)c3C2)nc1C(=O)O (stereo not shown)

>  <Ymin (6 h)>
A (Ymin < 50%)

$$$$
>  <compound>
Cc1c(OCCCCCCCCCN2CCN(c3cccc4c(C5CCC(=O)NC5=O)nn(C)c34)CC2)cccc1-c1ccc(N2CCc3cccc(C(=O)Nc4nc5ccccc5s4)c3C2)nc1C(=O)O (stereo not shown)

>  <Ymin (6 h)>
A (Ymin < 50%)

$$$$
>  <compound>
Cc1c(-c2ccc(N3CCc4cccc(C(=O)Nc5nc6ccccc6s5)c4C3)nc2C(=O)NCCCCCCCC(=O)Nc2cccc3c(C4CCC(=O)NC4=O)nn(C)c23)cnn1CC12CC3CC(CC(C3)C1)C2 (stereo not shown)

>  <Ymin (6 h)>
A (Ymin < 50%)

$$$$
>  <compound>
Cc1c(OCCCCCCN2CCN(c3ccc4c(C5CCC(=O)NC5=O)nn(C)c4c3)CC2)cccc1-c1ccc(N2CCc3cccc(C(=O)Nc4nc5ccccc5s4)c3C2)nc1C(=O)O (stereo not shown)

>  <Ymin (6 h)>
B (50% ≤ Ymin < 70%)

$$$$
>  <compound>
Cc1c(O[C@H](C)CCC2CCN(CC(=O)Nc3ccc4c(C5CCC(=O)NC5=O)nn(C)c4c3)CC2)cccc1-c1ccc(N2CCc3cccc(C(=O)Nc4nc5ccccc5s4)c3C2)nc1C(=O)O (stereo partly shown) [Compound 162b]

>  <Ymin (6 h)>
C (Ymin ≥ 70%)

$$$$

Need Ymin (6 h) for each of these compounds.
1. Cc1c(OCCOc2ccc(CC(=O)Nc3cccc4c(C5CCC(=O)NC5=O)nn(C)c34)cc2)cccc1-c1ccc(N2CCc3cccc(C(=O)Nc4nc5ccccc5s4)c3C2)nc1C(=O)O (stereo not shown)
2. Cc1c(OCCCC2CCN(CCCOc3ccc4c(C5CCC(=O)NC5=O)nn(C)c4c3)CC2)cccc1-c1ccc(N2CCc3cccc(C(=O)Nc4nc5ccccc5s4)c3C2)nc1C(=O)O (stereo not shown)
3. Cc1cc(OCCCC2CCN(CC(=O)Nc3cccc4c(C5CCC(=O)NC5=O)nn(C)c34)CC2)ccc1-c1ccc(N2CCc3cccc(C(=O)Nc4nc5ccccc5s4)c3C2)nc1C(=O)O (stereo not shown)
4. Cc1c(OCCCN2CCN(CC(=O)Nc3ccc4c(C5CCC(=O)NC5=O)nn(C)c4c3)[C@@H](C(F)(F)F)C2)cccc1-c1ccc(N2CCc3cccc(C(=O)Nc4nc5ccccc5s4)c3C2)nc1C(=O)O (stereo partly shown) [Compound 187b]
5. Cc1c(Oc2ccc(CCCN3CCN(c4cccc5c(C6CCC(=O)NC6=O)nn(C)c45)CC3)cc2)cccc1-c1ccc(N2CCc3cccc(C(=O)Nc4nc5ccccc5s4)c3C2)nc1C(=O)O (stereo not shown)

1: B (50% ≤ Ymin < 70%); 2: C (Ymin ≥ 70%); 3: B (50% ≤ Ymin < 70%); 4: B (50% ≤ Ymin < 70%); 5: B (50% ≤ Ymin < 70%)

* * *

Molecular target: Human BCL-XL protein (N-terminal HiBiT tagged BCL-XL in HT1080 cells) (Homo sapiens)
Construct: expressed in transfected cells; host or cells: HT-1080 (ATCC CCL-121), stably transduced with lentivirus pLV-UBC-N-HiBiT-BCL-XL-PGK-puro and selected with puromycin
Assay: HiBiT based degradation assay
Format: cell-based
Conditions: BCL-XL degradation normalized with DMSO control; HT1080 cells expressing HiBiT-BCL-XL; 24 h
outcomeMeasure: Ymin (24 h)

>  <compound>
Cc1c(O[C@H]2CC[C@H](C[C@H](C)CCN3CCN(c4ccc5c(C6CCC(=O)NC6=O)nn(C)c5c4)CC3)CC2)cccc1-c1ccc(N2CCc3cccc(C(=O)Nc4nc5ccccc5s4)c3C2)nc1C(=O)O (single isomer, unassigned) [Compound 307a]

>  <outcomeMeasure>
Ymin (24 h)

>  <recordedValue>
A (Ymin < 50%)

$$$$
>  <compound>
Cc1c(O[C@H]2CC[C@H](CCCCN3CCN(c4ccc5c(C6CCC(=O)NC6=O)nn(C)c5c4)C(C)(C)C3)CC2)cccc1-c1ccc(N2CCc3cccc(C(=O)Nc4nc5ccccc5s4)c3C2)nc1C(=O)O (some centres unmarked) [Compound 322a]

>  <outcomeMeasure>
Ymin (24 h)

>  <recordedValue>
A (Ymin < 50%)

$$$$

* * *

Biological target: Human BCL-XL protein (N-terminal HiBiT tagged BCL-XL in HT1080 cells) (Homo sapiens, UniProt Q07817)
Construct: expressed in transfected cells; host or cells: HT-1080 (ATCC CCL-121), stably transduced with lentivirus pLV-UBC-N-HiBiT-BCL-XL-PGK-puro and selected with puromycin
Assay: HiBiT based degradation assay
Assay type: cell-based
Settings: BCL-XL degradation; HT1080 cells expressing HiBiT-BCL-XL; 24 h; read-out: EC50 (24 h)
outcomeMeasure: DC50

Examples from the recorded data:
>  <compound>
Cc1c(OCCC2CCN(CC3CCN(c4cccc5c(C6CCC(=O)NC6=O)nn(C)c45)CC3)CC2)cccc1-c1ccc(N2CCc3cccc(C(=O)Nc4nc5ccccc5s4)c3C2)nc1C(=O)O (stereo not drawn)

>  <DC50>
< 100 nM

$$$$
>  <compound>
Cn1nc(C2CCC(=O)NC2=O)c2ccc(NC(=O)CN3CCC(CCCOc4cccc(-c5ccc(N6CCc7cccc(C(=O)Nc8nc9ccccc9s8)c7C6)nc5C(=O)O)c4C(F)(F)F)CC3)cc21 (stereo not drawn)

>  <DC50>
< 100 nM

$$$$

Next:
compound Cc1c(OCCN2CCN(CC3CCN(c4ccc5c(C6CCC(=O)NC6=O)nn(C)c5c4)CC3)CC2)cccc1-c1ccc(N2CCc3cccc(C(=O)Nc4nc5ccccc5s4)c3C2)nc1C(=O)O (stereo not drawn) , DC50 observed: < 100 nM
